assay: NCI Yeast Anticancer Drug Screen. Data for the mlh1 strain (AID 171);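 also: 0% = growth of vehicle-treated control cultures of the same strain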; conditions: S. cerevisiae mlh1 strain growth inhibition; at 33.0 µM; active compounds read high
About 79,000 compounds went through this panel and 15% of them were active in at least one assay; those are over-represented in the sample as a whole. Activity calls are given as the source filed them. Rule as the data show it: active = growth inhibition above about 70%; inactive = the rest.
measurement type: growth inhibition

# count of solved cases: 3
# compound, growth inhibition
rows = [
    ("CCN1/C(=C/c2ccc3ccccc3[n+]2CC)C=Cc2ccccc21", "97% (active)"),
    ("CCCCCCCCCCCc1nc(N)n[nH]1", "79% (active)"),
    ("Nc1nc(N)c2c(n1)CCC(S(=O)(=O)c1ccc3ccccc3c1)C2 (configuration not stated)", "10% (inactive)"),
]

Report growth inhibition for C=C(CCCO)[C@@H]1CC[C@@](C)(O)[C@H]1C please.
-31% (inactive)

Another: c1ccc(N2N=C3N(c4ccccc4)C2N3c2ccccc2)cc1
37% (inactive)

Another: CCOC(=O)C1=C(C)NC(C)=C(C(=O)OCC)C1c1ccc(C)cc1
96% (active)

Another: O=[N+]([O-])/C(C(Cl)=C(Cl)Cl)=C1/OCCS1
99% (active)

Another: CCN(CC)N=Nc1c(C(N)=O)n[nH]c1C
-2% (inactive)

Another: CCNc1ccc2c(c1)C(=O)N(OS(C)(=O)=O)C2=O
12% (inactive)

Another: Cc1cccc(/C=N\NC(=S)N2CCCCC2)n1
98% (active)

Another: O=C1C=CC(=Nc2ccccc2)c2ccccc21
67% (inactive)

Another: O=[N+]([O-])c1c(/C=N/Nc2ccccc2)oc(-c2ccc3c(c2)OCO3)c1-c1ccc2c(c1)OCO2
36% (inactive)

* * *

test: NCI Yeast Anticancer Drug Screen. Data for the rad50EPP+ strain (AID 151);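 also: 0% = growth of vehicle-treated control cultures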; details: S. cerevisiae rad50 mutant strain, at 3.7 µM, active compounds read high
This is part of a sample that, as a whole, favours compounds with a hit. Of some 79,000 tested, about 15% had one in any assay.
Quick reference for growth inhibition among some molecules
The response must be a number in % with no trailing unit.

# count of solved cases: 3
# molecule, growth inhibition, %
measured = [
    ("Cc1cccc(/C=N/NC(=S)N(C)CCc2ccccn2)n1", -11),
    ("CC(C)(C)[OH+][O-].[O-]c1ccc(Cl)cc1C=Nc1ccc(Cl)cc1[O-].[O]=[V]", 10),
    ("Nc1cc(F)cc2c1-c1ccc(F)cc1C2", 10),
]

Report growth inhibition for N#C/C(=C1C=C/C(=N/O)c2ccccc2/1)c1ccccc1 please.
13

Another: Cc1ccc(Nc2c3c(c(C#N)c4nc5ccccc5n24)CCCC3)cc1
23

Another: N#CC(=C1C=CC(=NO)C=C1)c1ccccc1
64

* * *

test: NCI Yeast Anticancer Drug Screen. Data for the rad52 strain (AID 147);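 also: 0% = growth of vehicle-treated control cultures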; conditions: S. cerevisiae rad52 mutant growth inhibition; at 3.7 µM; active compounds read high
Compounds without any hit were thinned out: in the full panel of roughly 79,000, 15% have a hit.
Quick reference for growth inhibition among some molecules
The response must be a number in % with no trailing unit.

# molecule, growth inhibition, %
rows = [
    ("c1ccc2c(c1)ccc1c3ccncc3ccc21", 80),
    ("CNc1nc(C)nc2c1cnn2-c1ccc([N+](=O)[O-])cc1", -6),
    ("Cc1ccc(Nc2n[nH]c(=S)s2)cc1", 2),
    ("O=Nn1c2ccccc2c2cc([N+](=O)[O-])ccc21", 11),
    ("S=C(S)NCC1CCC(CNC(=S)S)CC1 (stereo not given)", -12),
    ("CCN(CC)N=Nc1c(C(N)=O)n[nH]c1C", -3),
]

Report growth inhibition for CC(=O)CC(=O)/C=C/c1cccs1 please.
-8

Another: CCCCCCCCN1C(=O)c2ccccc2C1=O
0

Another: O=C(/C=C\c1ccc([N+](=O)[O-])o1)Nc1ccc(Cl)cc1
96

Another: Cc1cc(O)c2c(c1O)C(=O)C13C(=C2O)C(=O)C2C(O)C1C1C(O)C3C(=O)C3=C(O)c4c(O)cc(C)c(O)c4C(=O)C321 (stereo not given)
39

Another: CCCCC(CC)C(=O)Oc1ccc(C(=O)c2ccccc2)c(O)c1 (stereo not given)
3

Another: Nc1nc(N)c2c(n1)CCC(S(=O)(=O)c1ccc3ccccc3c1)C2 (stereo not given)
44

Another: CCCCCCCCCCCc1nc(N)n[nH]1
-7

Another: CCCCCCCCCCCCCCCCNC(=O)/C(=C\c1ccc(Cl)c(Cl)c1)NC(=O)c1ccccc1
8

Another: Cc1ccc(Nc2c3c(c(C#N)c4nc5ccccc5n24)CCCC3)cc1
21

Another: Cc1c2cc[n+](CCN3CCCCC3)cc2c(C)c2c1[nH]c1ccc(O)cc12
44

Another: Clc1c(Cl)c(Cl)c2n[nH]nc2c1Cl
-11

Another: COc1cc(/C=C/c2sc3ccccc3[n+]2C)ccc1N(C)C
-2

Another: CC1OC(OC2CCCc3c(O)c4c(c(O)c32)C(=O)c2ccccc2C4=O)CC(N)C1O (stereo not given)
46

Another: C/C=C/[P+](c1ccccc1)(c1ccccc1)c1ccccc1
62

Another: O=c1[nH]c2ccccc2c2nc3ccccc3n12
-34

Another: COc1cc(N)ccc1Nc1c2ccccc2nc2ccccc12
33

Reference for the values: PubChem BioAssay (NCI)
